- Test system: C. albicans SN250, C. albicans, C. krusei, C. glabrata, C. tropicalis, A. fumigatus 91, 1163, 1100
- assay: Average MIC over the tested strains
- Assay type: cell-based
- condition.label: Table 12, C16 amides of C2'epiAmB
measured.metric: Average MIC (µM)
Field: numeric (µM). Do not append units.

Check out these entries, answers already filled in.
compound | output.unit | Average MIC
COC(=O)C(Cc1c[nH]cn1)NC(=O)C1C(O)CC2(O)CC(O)CC(O)C(O)CCC(O)CC(O)CC(=O)OC(C)C(C)C(O)C(C)C=CC=CC=CC=CC=CC=CC=CC(OC3OC(C)C(O)C(N)C3O)CC1O2 (stereo not drawn) | µM | 9.073
CC1C=CC=CC=CC=CC=CC=CC=CC(OC2OC(C)C(O)C(N)C2O)CC2OC(O)(CC(O)CC(O)C(O)CCC(O)CC(O)CC(=O)OC(C)C(C)C1O)CC(O)C2C(=O)NCCN (stereo not drawn) | µM | 1.750
CC1C=CC=CC=CC=CC=CC=CC=CC(OC2OC(C)C(O)C(N)C2O)CC2OC(O)(CC(O)CC(O)C(O)CCC(O)CC(O)CC(=O)OC(C)C(C)C1O)CC(O)C2C(=O)NCCC#N (stereo not drawn) | µM | 1.188

// Average MIC lookup, compound = CC1C=CC=CC=CC=CC=CC=CC=CC(OC2OC(C)C(O)C(N)C2O)CC2OC(O)(CC(O)CC(O)C(O)CCC(O)CC(O)CC(=O)OC(C)C(C)C1O)CC(O)C2C(=O)NCC(F)F (stereo not drawn) , result: 1.625

// Average MIC lookup, compound = CC1C=CC=CC=CC=CC=CC=CC=CC(OC2OC(C)C(O)C(N)C2O)CC2OC(O)(CC(O)CC(O)C(O)CCC(O)CC(O)CC(=O)OC(C)C(C)C1O)CC(O)C2C(=O)NC1COCC1O (stereo not drawn) [BR] , result: 1.688

// Average MIC lookup, compound = CNC(=O)C1C(O)CC2(O)CC(O)CC(O)C(O)CCC(O)CC(O)CC(=O)OC(C)C(C)C(O)C(C)C=CC=CC=CC=CC=CC=CC=CC(OC3OC(C)C(O)C(N)C3O)CC1O2 (stereo not drawn) , result: 1.734

----------
- assay: Plasma Stability
- Type: in vitro ADME
- condition.label: pH 7.4; Human Plasma
measured.metric: half-life at 1 µM

// half-life at 1 µM lookup, compound = C[C@@H]1[C@H](O)[C@@H](C)/C=C/C=C/C=C/C=C/C=C/C=C/C=C/[C@H](OC2O[C@H](C)[C@@H](O)[C@H](N)[C@@H]2O)C[C@@H]2O[C@](O)(C[C@@H](O)C[C@@H](O)[C@H](O)CC[C@@H](O)C[C@@H](O)CC(=O)O[C@H]1C)C[C@H](O)[C@H]2C(=O)O (stereo partly shown) , result: > 4.82 h

----------
- Test system: C. krusei
- assay: MIC
- Type: cell-based
Rule: MIC C. krusei below 4 µM gives true (1), anything at or above gives false (0).

The following compounds have reported results that may help.
compound | measured.on | cat
CNC(=O)C1C(O)CC2(O)CC(O)CC(O)C(O)CCC(O)CC(O)CC(=O)OC(C)C(C)C(O)C(C)C=CC=CC=CC=CC=CC=CC=CC(OC3OC(C)C(O)C(N)C3O)CC1O2 (centres unmarked) [BB] | C. krusei | true (1)
CC1C=CC=CC=CC=CC=CC=CC=CC(OC2OC(C)C(O)C(N)C2O)CC2OC(O)(CC(O)CC(O)C(O)CCC(O)CC(O)CC(=O)OC(C)C(C)C1O)CC(O)C2C(=O)NC(CO)C(C)(C)C (centres unmarked) [AF] | C. krusei | true (1)
CC1C=CC=CC=CC=CC=CC=CC=CC(OC2OC(C)C(O)C(N)C2O)CC2OC(O)(CC(O)CC(O)C(O)CCC(O)CC(O)CC(=O)OC(C)C(C)C1O)CC(O)C2C(=O)NC1CCCCCC1 (centres unmarked) [AR7] | C. krusei | false (0)
CCC(CO)NC(=O)C1C(O)CC2(O)CC(O)CC(O)C(O)CCC(O)CC(O)CC(=O)OC(C)C(C)C(O)C(C)C=CC=CC=CC=CC=CC=CC=CC(OC3OC(C)C(O)C(N)C3O)CC1O2 (centres unmarked) [AD] | C. krusei | true (1)
CC1C=CC=CC=CC=CC=CC=CC=CC(OC2OC(C)C(O)C(N)C2O)CC2OC(O)(CC(O)CC(O)C(O)CCC(O)CC(O)CC(=O)OC(C)C(C)C1O)CC(O)C2C(=O)NCCO (centres unmarked) [Compound AA] | C. krusei | true (1)

Lookup: Does the reported MIC C. krusei of the following compound sit strictly below 4 µM? CC1C=CC=CC=CC=CC=CC=CC=CC(OC2OC(C)C(O)C(N)C2O)CC2OC(O)(CC(O)CC(O)C(O)CCC(O)CC(O)CC(=O)OC(C)C(C)C1O)CC(O)C2C(=O)NC1CCCC1 (centres unmarked) [AR5]
Found: false (0)

Lookup: Does the reported MIC C. krusei of the following compound sit strictly below 4 µM? CC(C)CC(CO)NC(=O)C1C(O)CC2(O)CC(O)CC(O)C(O)CCC(O)CC(O)CC(=O)OC(C)C(C)C(O)C(C)C=CC=CC=CC=CC=CC=CC=CC(OC3OC(C)C(O)C(N)C3O)CC1O2 (centres unmarked) [AE]
Found: true (1)

Lookup: Does the reported MIC C. krusei of the following compound sit strictly below 4 µM? CC1C=CC=CC=CC=CC=CC=CC=CC(OC2OC(C)C(O)C(N)C2O)CC2OC(O)(CC(O)CC(O)C(O)CCC(O)CC(O)CC(=O)OC(C)C(C)C1O)CC(O)C2C(=O)NCCS (centres unmarked) [AB]
Found: true (1)

Lookup: Does the reported MIC C. krusei of the following compound sit strictly below 4 µM? CC1C=CC=CC=CC=CC=CC=CC=CC(OC2OC(C)C(O)C(N)C2O)CC2OC(O)(CC(O)CC(O)C(O)CCC(O)CC(O)CC(=O)OC(C)C(C)C1O)CC(O)C2C(=O)NC1CCC1 (centres unmarked) [AR4]
Found: false (0)

Lookup: Does the reported MIC C. krusei of the following compound sit strictly below 4 µM? COCCNC(=O)C1C(O)CC2(O)CC(O)CC(O)C(O)CCC(O)CC(O)CC(=O)OC(C)C(C)C(O)C(C)C=CC=CC=CC=CC=CC=CC=CC(OC3OC(C)C(O)C(N)C3O)CC1O2 (centres unmarked) [AG]
Found: true (1)

Origin of measurements: patent US20230016424A1
